# tested.on: TMEM63B
# protocol.text: reporter assay of Huesken 2005; further: test concentration or dose not given here
# stated.conditions: siRNA
Oligonucleotides are given in HELM: sugar(base)linkage, 5' to 3'; d 2'-deoxyribose, r ribose, m 2'-O-methylribose, p phosphate. ss, as = sense and antisense strand
Record form. Attribute: normalised inhibition (eCFP-eYFP dual reporter). Fill in for each entry.
Numbers only, in %.

Value sought for every listed substance: normalised inhibition (eCFP-eYFP dual reporter).
1. RNA1{r(A)p.r(G)p.r(U)p.r(G)p.r(C)p.r(C)p.r(C)p.r(A)p.r(C)p.r(A)p.r(A)p.r(C)p.r(U)p.r(A)p.r(C)p.r(A)p.r(A)p.r(G)p.r(A)p.d(T)p.d(T)}|RNA2{r(U)p.r(C)p.r(U)p.r(U)p.r(G)p.r(U)p.r(A)p.r(G)p.r(U)p.r(U)p.r(G)p.r(U)p.r(G)p.r(G)p.r(G)p.r(C)p.r(A)p.r(C)p.r(U)p.d(G)p.d(A)}$$$RNA1{StrandType:ss}|RNA2{StrandType:as}$
2. RNA1{r(U)p.r(G)p.r(A)p.r(A)p.r(U)p.r(G)p.r(A)p.r(G)p.r(A)p.r(A)p.r(G)p.r(C)p.r(C)p.r(U)p.r(C)p.r(U)p.r(U)p.r(G)p.r(G)p.d(T)p.d(T)}|RNA2{r(C)p.r(C)p.r(A)p.r(A)p.r(G)p.r(A)p.r(G)p.r(G)p.r(C)p.r(U)p.r(U)p.r(C)p.r(U)p.r(C)p.r(A)p.r(U)p.r(U)p.r(C)p.r(A)p.d(C)p.d(C)}$$$RNA1{StrandType:ss}|RNA2{StrandType:as}$
3. RNA1{r(U)p.r(G)p.r(C)p.r(C)p.r(A)p.r(C)p.r(C)p.r(C)p.r(G)p.r(A)p.r(C)p.r(G)p.r(C)p.r(C)p.r(C)p.r(U)p.r(C)p.r(A)p.r(C)p.d(T)p.d(T)}|RNA2{r(G)p.r(U)p.r(G)p.r(A)p.r(G)p.r(G)p.r(G)p.r(C)p.r(G)p.r(U)p.r(C)p.r(G)p.r(G)p.r(G)p.r(U)p.r(G)p.r(G)p.r(C)p.r(A)p.d(T)p.d(C)}$$$RNA1{StrandType:ss}|RNA2{StrandType:as}$
4. RNA1{r(A)p.r(G)p.r(G)p.r(U)p.r(G)p.r(C)p.r(U)p.r(G)p.r(C)p.r(A)p.r(G)p.r(G)p.r(A)p.r(C)p.r(U)p.r(C)p.r(A)p.r(G)p.r(A)p.d(T)p.d(T)}|RNA2{r(U)p.r(C)p.r(U)p.r(G)p.r(A)p.r(G)p.r(U)p.r(C)p.r(C)p.r(U)p.r(G)p.r(C)p.r(A)p.r(G)p.r(C)p.r(A)p.r(C)p.r(C)p.r(U)p.d(G)p.d(A)}$$$RNA1{StrandType:ss}|RNA2{StrandType:as}$
5. RNA1{r(G)p.r(U)p.r(C)p.r(C)p.r(U)p.r(U)p.r(U)p.r(C)p.r(A)p.r(G)p.r(C)p.r(G)p.r(G)p.r(C)p.r(A)p.r(C)p.r(A)p.r(U)p.r(C)p.d(T)p.d(T)}|RNA2{r(G)p.r(A)p.r(U)p.r(G)p.r(U)p.r(G)p.r(C)p.r(C)p.r(G)p.r(C)p.r(U)p.r(G)p.r(A)p.r(A)p.r(A)p.r(G)p.r(G)p.r(A)p.r(C)p.d(A)p.d(G)}$$$RNA1{StrandType:ss}|RNA2{StrandType:as}$

RESULT:
81.7
39.5
12.7
61.8
65.1
